system: Mycobacterium tuberculosis; experiment: Antituberculosis activity against Mycobacterium tuberculosis H37Rv under anaerobic conditions by fluorescence based low-oxygen-recovery assay; format: functional
Consider the following molecules and their measured MIC readings.

# molecule, value_operator, MIC [µM]
rows = [
    ("O=[N+]([O-])c1cn2c(n1)OC[C@@H](OCCOc1ncc(-c3ccc(OC(F)(F)F)cc3)cn1)C2", "=", 2.1),
    ("O=[N+]([O-])c1cn2c(n1)OC[C@@H](Oc1cc(-c3ccc(OC(F)(F)F)cc3)ccn1)C2", "=", 87),
    ("O=[N+]([O-])c1cn2c(n1)OC[C@@H](Oc1cc(-c3ccc(F)cc3)ncn1)C2", "=", 15),
    ("O=[N+]([O-])c1cn2c(n1)OC[C@@H](OCCOc1ncc(-c3ccc(F)cc3)cn1)C2", "=", 13),
    ("O=[N+]([O-])c1cn2c(n1)OC[C@@H](Oc1ccnc(-c3ccc(OC(F)(F)F)cc3)c1)C2", "=", 2.6),
    ("O=[N+]([O-])c1cn2c(n1)OC[C@@H](OCC#Cc1ccc(-c3ccc(C(F)(F)F)cc3)nc1)C2", "=", 0.58),
    ("O=[N+]([O-])c1cn2c(n1)OC[C@@H](OC/C=C/c1ccc(-c3ccc(C(F)(F)F)nc3)cc1)C2", "=", 15),
    ("O=[N+]([O-])c1cn2c(n1)OC[C@@H](OCCOc1ccc(-c3ccc(C(F)(F)F)cc3)cc1)C2", "=", 104),
    ("O=[N+]([O-])c1cn2c(n1)OC[C@@H](OCC#Cc1ccc(-c3ccc(F)cc3)nc1)C2", "=", 1),
    ("O=[N+]([O-])c1cn2c(n1)OC[C@@H](OC/C=C/c1ccc(-c3ccc(OC(F)(F)F)cc3)cc1)C2", ">", 128),
    ("O=[N+]([O-])c1cn2c(n1)OC[C@@H](OCCCC#Cc1ccc(-c3ccc(F)cc3)cc1)C2", "=", 1.6),
    ("O=[N+]([O-])c1cn2c(n1)OC[C@@H](OCC#Cc1ccc(C(F)(F)F)cn1)C2", "=", 3.3),
    ("O=[N+]([O-])c1cn2c(n1)OC[C@@H](OCCCc1ccc(OCc3ccccc3)cc1)C2", "=", 3.7),
    ("CC(O[C@@H]1COc2nc([N+](=O)[O-])cn2C1)c1ccc(-c2ccc(OC(F)(F)F)cc2)cc1 (some centres undefined)", "=", 1.5),
    ("O=[N+]([O-])c1cn2c(n1)OC[C@@H](Oc1cccc(-c3ccc(C(F)(F)F)nc3)n1)C2", ">", 128),
    ("O=[N+]([O-])c1cn2c(n1)OC[C@@H](OCCOc1ccc(-c3ccc(OC(F)(F)F)cc3)cn1)C2", "=", 2.5),
    ("O=[N+]([O-])c1cn2c(n1)OC[C@@H](OCCOc1ccc(-c3ccc(C(F)(F)F)nc3)cn1)C2", "=", 10),
    ("O=[N+]([O-])c1cn2c(n1)OC[C@@H](Oc1ccc(-c3ccc(F)cc3)cn1)C2", "=", 15),
    ("O=[N+]([O-])c1cn2c(n1)OC[C@@H](OCCOc1ccc(C(F)(F)F)cn1)C2", "=", 26),
    ("O=[N+]([O-])c1cn2c(n1)OC[C@@H](OCC#Cc1ccc(-c3ccc(OC(F)(F)F)cc3)nc1)C2", "=", 0.52),
    ("O=[N+]([O-])c1cn2c(n1)OC[C@@H](OCC#Cc1ccc(-c3ccc(OC(F)F)cc3)cc1)C2", "=", 1.8),
    ("O=[N+]([O-])c1cn2c(n1)OC[C@@H](OCC#Cc1ccc(-c3ccc(C(F)(F)F)nc3)cc1)C2", "=", 1.2),
    ("O=[N+]([O-])c1cn2c(n1)OC[C@@H](OCCCC#Cc1ccc(-c3ccc(C(F)(F)F)nc3)cc1)C2", "=", 63),
    ("O=[N+]([O-])c1cn2c(n1)OC[C@@H](OCC#Cc1ccc(-c3ccc(OC(F)F)cc3)cn1)C2", "=", 0.44),
    ("O=[N+]([O-])c1cn2c(n1)OC[C@@H](OCC#Cc1ccc(-c3ccc(C(F)(F)F)cc3)cn1)C2", "=", 0.75),
    ("O=[N+]([O-])c1cn2c(n1)OC[C@@H](OCCCc1ccc(-c3ccc(OC(F)(F)F)cc3)cc1)C2", "=", 3.8),
    ("O=[N+]([O-])c1cn2c(n1)OC[C@@H](Oc1ccc(-c3ccc(C(F)(F)F)cc3)cc1)C2", ">", 128),
    ("O=[N+]([O-])c1cn2c(n1)OC[C@@H](OCC#Cc1ccc(-c3ccc(C(F)(F)F)cc3)cc1)C2", "=", 0.86),
    ("O=[N+]([O-])c1cn2c(n1)OC[C@@H](Oc1cc(-c3ccc(C(F)(F)F)nc3)ncn1)C2", "=", 62),
    ("O=[N+]([O-])c1cn2c(n1)OC[C@@H](OCC#Cc1ccc(-c3ccc(F)cc3)cn1)C2", "=", 0.85),
    ("O=[N+]([O-])c1cn2c(n1)OC[C@@H](OCCOc1ncc(-c3ccc(C(F)(F)F)nc3)cn1)C2", "=", 56),
    ("CC(O[C@@H]1COc2nc([N+](=O)[O-])cn2C1)c1ccc(-c2ccc(F)cc2)cc1 (some centres undefined)", "=", 1.3),
    ("O=[N+]([O-])c1cn2c(n1)OC[C@@H](OCCOc1ccc(OC(F)(F)F)cc1)C2", "=", 5.1),
    ("O=[N+]([O-])c1cn2c(n1)OC[C@@H](Oc1ccc(-c3ccc(C(F)(F)F)nc3)nc1)C2", "=", 17),
]

---

assay: Metabolic stability in human liver microsomes at 1 uM measured as compound remaining after 1 hr by LC/MS/MS analysis; assay type: ADME, Microsome; details: read-out: Stability

# compound, remaining at 1 h, 1 µM / %
rows = [
    ("O=[N+]([O-])c1cn2c(n1)OC[C@@H](OC/C=C/c1ccc(OC(F)(F)F)cc1)C2", 99),
    ("O=[N+]([O-])c1cn2c(n1)OC[C@@H](OCC#Cc1ccc(-c3ccc(C(F)(F)F)nc3)cc1)C2", 82),
    ("O=[N+]([O-])c1cn2c(n1)OC[C@@H](OCCOc1ccc(OC(F)(F)F)cc1)C2", 85),
    ("O=[N+]([O-])c1cn2c(n1)OC[C@@H](OCCCC#Cc1ccc(OC(F)(F)F)cc1)C2", 69),
    ("O=[N+]([O-])c1cn2c(n1)OC[C@@H](OCC#Cc1ccc(-c3ccc(OC(F)(F)F)cc3)cc1)C2", 93),
    ("CC(O[C@@H]1COc2nc([N+](=O)[O-])cn2C1)c1ccc(OC(F)(F)F)cc1 (mixture of isomers)", 73),
    ("O=[N+]([O-])c1cn2c(n1)OC[C@@H](OCC#Cc1ccc(-c3ccc(OC(F)(F)F)cc3)cn1)C2", 89),
    ("O=[N+]([O-])c1cn2c(n1)OC[C@@H](OCCCc1ccc(-c3ccc(C(F)(F)F)cc3)cc1)C2", 73),
    ("O=[N+]([O-])c1cn2c(n1)OC[C@@H](Oc1ncc(-c3ccc(OC(F)(F)F)cc3)cn1)C2", 88),
    ("O=[N+]([O-])c1cn2c(n1)OC[C@@H](OCc1ccc(OCc3ccccc3)cc1)C2", 59),
    ("O=[N+]([O-])c1cn2c(n1)OC[C@@H](OCC#Cc1cccc(-c3ccc(OC(F)(F)F)cc3)c1)C2", 94),
    ("O=[N+]([O-])c1cn2c(n1)OC[C@@H](Oc1ccc(-c3ccc(OC(F)(F)F)cc3)cn1)C2", 96),
    ("O=[N+]([O-])c1cn2c(n1)OC[C@@H](OCCCc1ccc(-c3ccc(OC(F)(F)F)cc3)cc1)C2", 88),
    ("O=[N+]([O-])c1cn2c(n1)OC[C@@H](OC/C=C/c1ccc(-c3ccc(OC(F)(F)F)cc3)cc1)C2", 100),
    ("O=[N+]([O-])c1cn2c(n1)OC[C@@H](OCCOc1ccc(-c3ccc(OC(F)(F)F)cc3)cc1)C2", 90),
    ("O=[N+]([O-])c1cn2c(n1)OC[C@@H](OCC#Cc1ccc(-c3ccc(OC(F)(F)F)cc3)nc1)C2", 93),
    ("CC(O[C@@H]1COc2nc([N+](=O)[O-])cn2C1)c1ccc(-c2ccc(OC(F)(F)F)cc2)cc1 (some centres not stated)", 100),
]

---

Below, each entry is listed alongside its reported log10(half-life).
assay: Half life in the lung of CD1 mouse at 40 mg/kg, po; type: ADME, organism-based; set-up: dose 40 mg/kg, route oral
experimental_readout: log10(half-life) (log10 of the value in h)

# smiles, log10(half-life)
rows = [
    ("O=[N+]([O-])c1cn2c(n1)OC[C@@H](Oc1ccc(-c3ccc(OC(F)(F)F)cc3)cc1)C2", 1.18),
    ("O=[N+]([O-])c1cn2c(n1)OC[C@@H](OCC#Cc1cccc(-c3ccc(OC(F)(F)F)cc3)c1)C2", 1.15),
    ("O=[N+]([O-])c1cn2c(n1)OC[C@@H](OCC#Cc1ccc(-c3ccc(OC(F)(F)F)cc3)cc1)C2", 1.09),
    ("O=[N+]([O-])c1cn2c(n1)OC[C@@H](OCCCC#Cc1ccc(OC(F)(F)F)cc1)C2", 0.15),
    ("O=[N+]([O-])c1cn2c(n1)OC[C@@H](OCc1ccc(-c3ccc(OC(F)(F)F)cc3)cc1)C2", 1.11),
]

Cited source for all entries: ChEMBL document CHEMBL1833943
